src = patent US7034056B2

- target of assay: hMCHR (MCH receptor) (Homo sapiens)
- Construct: (or internally produced); host or cells: CHO (Chinese hamster ovary) cells, membrane preparation
- Sequence (Q99705 whole entry): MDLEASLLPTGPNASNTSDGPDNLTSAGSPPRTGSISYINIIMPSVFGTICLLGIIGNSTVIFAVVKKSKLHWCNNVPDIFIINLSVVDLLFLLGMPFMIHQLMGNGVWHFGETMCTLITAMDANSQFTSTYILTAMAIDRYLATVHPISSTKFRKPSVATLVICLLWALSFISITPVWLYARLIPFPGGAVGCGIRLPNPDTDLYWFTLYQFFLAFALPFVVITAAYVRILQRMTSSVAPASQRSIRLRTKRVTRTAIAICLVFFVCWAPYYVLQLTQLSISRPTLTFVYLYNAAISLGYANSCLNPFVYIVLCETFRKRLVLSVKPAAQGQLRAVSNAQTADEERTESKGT
- protocol notes: MCH Assay PCOP Protocol ([125I]-MCH SPA binding to hMCHR-CHO membranes);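 also: A 0.4–50 nM B 51–500 nM C 501–2500 nM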
- assay setup: [125I]-MCH binding to hMCHR-CHO membranes; class symbols for ranges of Ki; read-out: Activity (Ki range)

compound | Ki
CN(C)CCNCCC(CNC(=O)Nc1cc(C(F)(F)F)cc(C(F)(F)F)c1)c1ccc(Cl)c(Cl)c1 (stereo not shown) | 51 to 500 nM
O=C(NCC(CCNC1CCCC1)c1ccc(Cl)c(Cl)c1)Nc1cc(Cl)cc(Cl)c1 (stereo not shown) | 51 to 500 nM
O=C(NCC(CCNC1CCCC1)c1ccc(-c2ccc(C(F)(F)F)cc2)cc1)Nc1cc(Cl)cc(Cl)c1 (stereo not shown) | 51 to 500 nM
O=C(NCC(CCNCc1ccc2c(c1)OCO2)c1ccc(Cl)c(Cl)c1)Nc1cccc(C(F)(F)F)c1 (stereo not shown) | 501 to 2500 nM
O=C(NCC(CCNC1CCCC1)c1ccc(-c2ccc(F)c(Cl)c2)cc1)Nc1cc(Cl)cc(Cl)c1 (stereo not shown) | 51 to 500 nM
Cc1cccc(C(CCNCCCN(C)C)CNC(=O)Nc2cc(C(F)(F)F)cc(C(F)(F)F)c2)c1 (stereo not shown) | 501 to 2500 nM
CCOC(=O)N1CCC(NCCC(CNC(=O)Nc2ccc(F)c([N+](=O)[O-])c2)c2ccc(Cl)c(Cl)c2)CC1 (stereo not shown) | 501 to 2500 nM
